The values you see were collected from the supplement of paper PMC11061612.

Tested on: SNU-398 (Hepatocellular Carcinoma);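 further: after 72 h of two-drug dosing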
Assay: Bliss excess, mean over the matrix (fraction); higher = more synergy
measurement label: Bliss excess
Give bare numbers.

Some entries whose results are on file:
compound | observed measurement
C[C@@H](c1ccc2nccn2c1)n1nnc2ncc(-c3cnn(C)c3)nc21 [Savolitinib] + CN(CC[C@H](CSC1=CC=CC=C1)NC2=C(C=C(C=C2)S(=O)(=O)NC(=O)C3=CC=C(C=C3)N4CCC(CC4)[C@H](C5=CC=CC=C5C6=CC=C(C=C6)Cl)O)S(=O)(=O)C(F)(F)F)CCO [AZD4320] (first compound max 1 µM, 7x7, partner max 1 µM) | -0.0665
NC1(C(=O)N[C@@H](CCO)c2ccc(Cl)cc2)CCN(c2ncnc3[nH]ccc23)CC1 [Capivasertib] + CC(=O)c1c(C)c2cnc(Nc3ccc(N4CCNCC4)cn3)nc2n(C2CCCC2)c1=O [Palbociclib] (first compound max 10 µM, 7x7, partner max 10 µM) | -0.057

Form: compound = CCc1c2c(nc3ccc(O)cc13)-c1cc3c(c(=O)n1C2)COC(=O)[C@]3(O)CC [SN-38] + CN(C)CCCOc1ccc(-c2ccc3ncc4c(c3c2)n(C2CCOCC2)c(=O)n4C)cn1 [AZD0156] (first compound max 0.3 µM, 7x7, partner max 1 µM) ; Bliss excess = 0.0255
